# TARGET_OR_SYSTEM: T1, EsCas13d, nuclease-dead (Eubacterium siraeum, UniProt B0MS50, R295A;H300A;R849A;H854A)
# T1 sequence: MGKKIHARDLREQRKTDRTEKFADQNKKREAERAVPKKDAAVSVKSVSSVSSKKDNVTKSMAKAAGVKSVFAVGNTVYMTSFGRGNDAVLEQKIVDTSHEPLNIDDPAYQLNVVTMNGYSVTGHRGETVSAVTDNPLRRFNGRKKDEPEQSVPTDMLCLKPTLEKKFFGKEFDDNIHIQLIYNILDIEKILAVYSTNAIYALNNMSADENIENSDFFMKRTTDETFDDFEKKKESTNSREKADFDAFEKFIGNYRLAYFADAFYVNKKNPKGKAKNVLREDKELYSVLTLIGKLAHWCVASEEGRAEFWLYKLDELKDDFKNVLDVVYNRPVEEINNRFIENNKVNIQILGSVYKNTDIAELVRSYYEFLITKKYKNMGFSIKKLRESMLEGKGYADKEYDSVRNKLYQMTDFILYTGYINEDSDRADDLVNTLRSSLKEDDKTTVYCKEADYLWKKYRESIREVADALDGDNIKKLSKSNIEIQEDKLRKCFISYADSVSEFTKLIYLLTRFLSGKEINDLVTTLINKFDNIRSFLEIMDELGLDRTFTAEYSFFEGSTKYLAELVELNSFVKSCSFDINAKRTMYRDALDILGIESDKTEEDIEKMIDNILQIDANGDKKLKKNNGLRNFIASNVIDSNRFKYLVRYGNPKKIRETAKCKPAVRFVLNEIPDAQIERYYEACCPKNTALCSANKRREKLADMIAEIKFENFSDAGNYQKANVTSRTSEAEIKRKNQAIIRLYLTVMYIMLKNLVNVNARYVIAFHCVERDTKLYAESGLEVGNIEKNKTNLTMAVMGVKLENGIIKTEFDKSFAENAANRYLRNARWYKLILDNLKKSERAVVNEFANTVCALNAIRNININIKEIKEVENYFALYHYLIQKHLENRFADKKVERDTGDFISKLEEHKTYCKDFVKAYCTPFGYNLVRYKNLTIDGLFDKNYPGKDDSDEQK
# PROCEDURE_DETAILS: crRNA (strand 1, pre-loaded); Mg2+; 40 mM Tris-HCl pH 7.5, 150 mM NaCl, 6 mM MgCl2, 1 mM DTT, 0.1% Tween-20, 0.2 mg/ml BSA; 25 C; 10 min per concentration, then washed
# EXPERIMENTAL_CONTEXT: tags: His6-TwinStrep-SUMO cleaved; N-terminal SNAP kept (SNAP-Surface 488); label: 3' end held by stalled T7 RNA polymerase
VALUE_KIND: pKd
The read-out pKd is expressed as -log10 of concentration in moles per litre.

- BINDER: "target 1 G13C,G15U (mixed) RNA 1: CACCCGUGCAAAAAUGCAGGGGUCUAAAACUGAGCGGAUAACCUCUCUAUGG RNA 2: GGGAAUGGAUCCACAUCUACGAAUUCGUACCAUAGAUACGUUAUCCGCUCACCGAGAUCGGAAGAGCACACGU"
  VALUE_KIND: "pKd"
  RESULT_VALUE: 7.18

Now look at this one.
pKd reported for this binder target 2 MT 5'PFS GGA 3'PFS AUA (mixed) RNA 1: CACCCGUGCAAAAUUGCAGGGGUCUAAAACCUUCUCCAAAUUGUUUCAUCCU RNA 2: GGGAAUGGAUCCACAUCUACGAAUUCGGAAGGAUGAAACAAUUUGGAGAAGAUAAGAUCGGAAGAGCACACGU : 7.99
